This collection of values is drawn from patent US10934310B2.

molecular target: unphosphorylated-BTK kinase domain (UP-BTK), GST-tagged human BTK (389-659aa) (Homo sapiens (Human)); experiment: BTK Kinase Lanthascreen Binding Assay; conditions: compound, 50 nM Tracer 236, 2 nM anti-GST antibody, 60 minutes; pIC50 = negative log of the IC50 in molar
Sequence (Q06187 389-659): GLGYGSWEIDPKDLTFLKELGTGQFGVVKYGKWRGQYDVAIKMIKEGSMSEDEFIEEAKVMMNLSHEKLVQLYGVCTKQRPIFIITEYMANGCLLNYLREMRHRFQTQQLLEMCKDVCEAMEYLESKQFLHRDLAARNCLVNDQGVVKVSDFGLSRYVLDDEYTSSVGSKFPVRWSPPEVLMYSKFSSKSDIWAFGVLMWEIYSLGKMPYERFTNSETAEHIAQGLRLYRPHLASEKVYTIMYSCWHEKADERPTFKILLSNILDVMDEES
reported_property: BTK_I_binding pIC50
Answers are plain numbers.

Some solved cases for reference:
>>> test_value("O=C(N[C@@H]1CCC[C@@H]1O)c1sc2nccc3c2c1NC(=O)N3c1ccc(Oc2ccccc2)cc1")
7.15
>>> test_value("CNCC(=O)N[C@@H]1CCC[C@H]1NC(=O)c1sc2nccc3c2c1NC(=O)N3c1ccc(Oc2ccccc2)cc1C (single isomer, unassigned)")
8.04
>>> test_value("C=CC(=O)N[C@H]1CCC[C@H]1NC(=O)c1sc2nccc3c2c1NC(=O)N3c1cnc(Oc2ccccc2)cn1")
8.32

// batch mode: one BTK_I_binding pIC50 value per listed entry
1. C=CC(=O)N[C@H]1CC[C@@H](NC(=O)c2sc3nccc4c3c2NC(=O)N4c2ccc(Oc3ccccc3)cc2)CC1
2. Cc1cc(Oc2ccccc2)ccc1N1C(=O)Nc2c(C(=O)N[C@H]3CCCC[C@@H]3NC=O)sc3nccc1c23
3. C=CC(=O)N[C@H]1CCCC[C@H]1NC(=O)c1sc2nccc3c2c1NC(=O)N3c1cnc(OC2CCC2)cc1C (single isomer, unassigned) [Example 221]
4. C=CC(=O)N[C@@H]1CCC[C@H]1NC(=O)c1sc2nccc3c2c1NC(=O)N3c1ccc(Oc2ccccc2)cn1
5. CC(=O)N[C@H]1CC[C@H](NC(=O)c2sc3nccc4c3c2NC(=O)N4c2ccc(Oc3ccccc3)cc2C)C1 (single isomer, unassigned)
6. CNCC(=O)N[C@H]1CCC[C@H]1NC(=O)c1sc2nccc3c2c1NC(=O)N3c1ccc(Oc2ccccc2)cc1C (single isomer, unassigned)

1: 7.61; 2: 5.90; 3: 8.29; 4: 7.56; 5: 7.26; 6: 7.18

* * *

biological target: unphosphorylated-BTK kinase domain (UP-BTK), GST-tagged human BTK (389-659aa) (Homo sapiens (Human)); experiment: BTK Kinase Lanthascreen Binding Assay; settings: compound, 50 nM Tracer 236, 2 nM anti-GST antibody, 60 minutes; pIC50 = negative log of the IC50 in molar
BTK_I_binding pIC50 less than 7 is Yes; BTK_I_binding pIC50 greater than or equal to 7 is No.

>>> label_class("Cc1cc(OC(C)C)ccc1N1C(=O)Nc2c(C(=O)N[C@H]3CC[C@@H](NC(=O)CN(C)C)C3)sc3nccc1c23")
"Yes"

Field: below-cutoff. Rule: recorded BTK_I_binding pIC50 strictly less than 7. Subject: C=CC(=O)N[C@@H]1CCC[C@@H](NC(=O)c2sc3nccc4c3c2NC(=O)N4c2ccc(Oc3ccccc3)cc2C)C1 (single isomer, unassigned)
No

Field: below-cutoff. Rule: recorded BTK_I_binding pIC50 strictly less than 7. Subject: `CC(=O)N[C@@H]1CCCC[C@H]1NC(=O)c1sc2nccc3c2c1NC(=O)N3c1ccc(Oc2ccccc2)cc1C`
Yes

Field: below-cutoff. Rule: recorded BTK_I_binding pIC50 strictly less than 7. Subject: `Cc1cc(Oc2ccccc2)ccc1N1C(=O)Nc2c(C(=O)N[C@H]3CC[C@@H](NC(=O)/C=C/CN)CC3)sc3nccc1c23`
Yes

Field: below-cutoff. Rule: recorded BTK_I_binding pIC50 strictly less than 7. Subject: C=CC(=O)N[C@H]1CC[C@@H](NC(=O)c2sc3nccc4c3c2NC(=O)N4c2ccc(Oc3ccccc3)cc2C)CC1 (single isomer, unassigned) [Example 1]
No
